- measuredTarget: HLA A2.1 molecule (human)
- experimentNotes: T2 cells, flow cytometry (BB7.2); complex dissociation
Here the recorded DC50 is given for each entry.
recordedEndpoint: DC50 (h)

1. YLEEITGYL (modifications not checked) [HER-2/neu 402Y1] :: 4
2. ILTVILGVL (modifications not checked) [mart-1 32] :: 4
3. PLQPEQLQV (modifications not checked) [HER-2/neu 391] :: 2
4. YLVPQQGFFC (modifications not checked) [HER-2/neu 1023] :: 4
5. FLPWHRLFLL (modifications not checked) [Tyrosinase 207] :: 2
6. YLFFYRKSV (modifications not checked) [mhp 572Y1] :: 5
7. LLGCAANWIL (modifications not checked) [HBVpol 765] :: 4
8. YLIHHNTHL (modifications not checked) [HER-2/neu 466Y1] :: 6
9. VLVKSPNHV (modifications not checked) [HER-2/neu 851] :: 4
10. YLQPEQLQV (modifications not checked) [HER-2/neu 391Y1] :: 8
11. VMAGVGSPYV (modifications not checked) [HER-2/neu 773] :: 6
12. ALIHHNTHL (modifications not checked) [HER-2/neu 466] :: 2

Origin of values: patent US20040072240A1
